Target: SSTR2 (Homo sapiens)
Construct: expressed in transfected cells; host or cells: HEK-293T (CRL-3216)
Sequence (P30874 whole entry): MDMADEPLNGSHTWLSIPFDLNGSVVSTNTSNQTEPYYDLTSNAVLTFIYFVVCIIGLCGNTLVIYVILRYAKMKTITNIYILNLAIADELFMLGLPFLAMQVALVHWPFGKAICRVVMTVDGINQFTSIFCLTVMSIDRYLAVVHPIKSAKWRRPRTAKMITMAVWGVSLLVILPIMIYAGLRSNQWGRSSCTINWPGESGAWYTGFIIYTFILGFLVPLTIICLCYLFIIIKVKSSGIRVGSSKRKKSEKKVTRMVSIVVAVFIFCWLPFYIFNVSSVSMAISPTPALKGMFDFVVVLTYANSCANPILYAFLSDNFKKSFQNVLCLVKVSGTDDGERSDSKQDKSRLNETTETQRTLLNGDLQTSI
Test: GloSensor assay, inhibition of forskolin-induced cAMP production
Format: cell-based
Conditions: read-out: IC50 sstr2
Starred links: 1 amine or outer side, 2 acyl side, 3 side chain; linkers in the order of their positions; H or OH if unused. Non-standard residues stand in square brackets, D forms with d. Residues, ends and D or L forms follow the SMILES beside them. X7 = C[C@@H](O)[C@H](NC(=S)[C@H](CCCCN)N[*:1])C(=O)[*:2]; X8 = O=C([C@H](Cc1ccccc1)NC(=S)[C@@H]1CCCN1[*:1])[*:2]; X9 = O=C([C@@H]1CCCN1C(=S)[C@H](Cc1ccccc1)N[*:1])[*:2]
Reported pIC50 values are given for each entry in this list.
The quantity pIC50 is defined as the negative base-10 logarithm of the molar concentration.

Compound: C[C@@H](O)[C@@H]1NC(=O)[C@H](CCCCN)NC(=O)[C@@H](Cc2c[nH]c3ccccc23)NC(=O)[C@H](Cc2ccccc2)NC(=S)[C@@H]2CCCN2C(=O)[C@H](Cc2ccccc2)NC1=O [13e] (cyclo(F[X8][dW]KT))
pIC50: 7.72

Compound: C[C@@H](O)[C@@H]1NC(=O)[C@H](CCCCN)NC(=O)[C@@H](Cc2c[nH]c3ccccc23)NC(=O)[C@H](Cc2ccccc2)NC(=O)[C@@H]2CCCN2C(=S)[C@H](Cc2ccccc2)NC1=O [13d] (cyclo(F[dW]KT[X9]))
pIC50: 7.69

Would you mind telling me what pIC50 value was observed for C[C@@H](O)[C@@H]1NC(=S)[C@H](CCCCN)NC(=O)[C@@H](Cc2c[nH]c3ccccc23)NC(=O)[C@H](Cc2ccccc2)NC(=O)[C@@H]2CCCN2C(=O)[C@H](Cc2ccccc2)NC1=O [13b] (cyclo(FPF[dW][X7])) ?
7.81

---

Reported bioavailability values are given for each entry in this list.
Test: in vivo
Conditions: male, Wistar, rat, po
Starred links: 1 amine or outer side, 2 acyl side, 3 side chain; linkers in the order of their positions; H or OH if unused. Non-standard residues stand in square brackets, D forms with d. Residues, ends and D or L forms follow the SMILES beside them. X1 = CC(C)C[C@H](NC(=S)[C@H](Cc1ccc(O)cc1)N[*:1])C(=O)[*:2]; X2 = CC(C)C[C@H](NC(=S)[C@@H](CC(C)C)N[*:1])C(=O)[*:2]; X3 = CC(C)C[C@H](N[*:1])C(=S)N[C@H](CC(C)C)C(=O)[*:2]; NMeL = CN[C@@H](CC(C)C)C(=O)O
The response must be a number in % with no trailing unit.

The cases that follow already have their bioavailability on record.
Molecule: CC(C)C[C@@H]1NC(=O)[C@@H](CC(C)C)NC(=O)[C@H](CC(C)C)NC(=S)[C@H](Cc2ccc(O)cc2)NC(=O)[C@H]2CCCN2C(=O)[C@H](CC(C)C)NC1=O [10e] (cyclo(LL[dP][X1][dL]))
Unit Of Measurement: %
bioavailability: 1.6

Molecule: CC(C)C[C@@H]1NC(=O)[C@H](Cc2ccc(O)cc2)NC(=O)[C@H]2CCCN2C(=O)[C@H](CC(C)C)NC(=O)[C@H](CC(C)C)N(C)C(=O)[C@@H](CC(C)C)NC1=O [10h] (cyclo(L[dL][NMeL]L[dP]Y))
Unit Of Measurement: %
bioavailability: 1.2

Molecule: CC(C)C[C@@H]1NC(=O)[C@H](Cc2ccc(O)cc2)NC(=O)[C@H]2CCCN2C(=O)[C@H](CC(C)C)NC(=O)[C@H](CC(C)C)NC(=S)[C@@H](CC(C)C)NC1=O [10a] (cyclo(L[dP]YL[X2]))
Unit Of Measurement: %
bioavailability: 1.8

Would you mind telling me what bioavailability value was observed for CC(C)C[C@@H]1NC(=O)[C@@H](CC(C)C)NC(=S)[C@H](CC(C)C)NC(=O)[C@H](Cc2ccc(O)cc2)NC(=O)[C@H]2CCCN2C(=O)[C@H](CC(C)C)NC1=O [10f] (cyclo(LL[dP]Y[X3])) ?
3.1

Would you mind telling me what bioavailability value was observed for CC(C)C[C@@H]1NC(=O)[C@@H](CC(C)C)NC(=O)[C@H](CC(C)C)N(C)C(=O)[C@H](Cc2ccc(O)cc2)NC(=O)[C@H]2CCCN2C(=O)[C@H](CC(C)C)NC1=O [10k] (cyclo(LL[dP]Y[NMeL][dL])) ?
6.8

---

Assay type: physicochemical
Starred links: 1 amine or outer side, 2 acyl side, 3 side chain; linkers in the order of their positions; H or OH if unused. Non-standard residues stand in square brackets, D forms with d. Residues, ends and D or L forms follow the SMILES beside them. X13 = CC[C@H](C)[C@H](NC(=S)[C@@H]1CCCN1[*:1])C(=O)[*:2]; X6 = O=C([C@H](Cc1ccc(O)cc1)NC(=S)[C@H]1CCCN1[*:1])[*:2]; X17 = CC[C@H](C)[C@H](N[*:1])C(=S)N1CCC[C@H]1C(=O)[*:2]; X2 = CC(C)C[C@H](NC(=S)[C@@H](CC(C)C)N[*:1])C(=O)[*:2]; X9 = O=C([C@@H]1CCCN1C(=S)[C@H](Cc1ccccc1)N[*:1])[*:2]; X3 = CC(C)C[C@H](N[*:1])C(=S)N[C@H](CC(C)C)C(=O)[*:2]; X19 = CC(C)C[C@H](NC(=S)[C@@H]1CCCN1[*:1])C(=O)[*:2]; X4 = CC(C)C[C@H](N[*:1])C(=S)N1CCC[C@@H]1C(=O)[*:2]; X18 = C[C@@H](N[*:1])C(=S)N1CCC[C@H]1C(=O)[*:2]
Reported % solubility values are given for each entry in this list.

The cases that follow already have their % solubility on record.
Compound: CC[C@H](C)[C@@H]1NC(=O)[C@@H]2CCCN2C(=S)[C@H]([C@@H](C)CC)NC(=O)[C@@H]2CCCN2C(=O)[C@H](Cc2ccccc2)NC(=O)[C@H](C)NC(=O)[C@H](C)NC1=O [11f] (cyclo(AAFP[X17]I))
% solubility: 76%
//
Compound: CC(C)C[C@@H]1NC(=O)[C@H](Cc2ccc(O)cc2)NC(=O)[C@H]2CCCN2C(=O)[C@H](CC(C)C)NC(=O)[C@H](CC(C)C)NC(=O)[C@@H](CC(C)C)NC1=O [compound 10, cyclo(-D-Leu^1-Leu-Leu-D-Pro-Tyr-Leu^6-)] (cyclo(LL[dP]YL[dL]))
% solubility: 97%
//
Compound: CC[C@H](C)[C@@H]1NC(=O)[C@@H]2CCCN2C(=O)[C@H]([C@@H](C)CC)NC(=S)[C@@H]2CCCN2C(=O)[C@H](Cc2ccccc2)NC(=O)[C@H](C)NC(=O)[C@H](C)NC1=O [11e] (cyclo(AAF[X13]PI))
% solubility: 65%
//
Compound: CC(C)C[C@@H]1NC(=O)[C@H](Cc2ccc(O)cc2)NC(=O)[C@H]2CCCN2C(=S)[C@H](CC(C)C)NC(=O)[C@H](CC(C)C)NC(=O)[C@@H](CC(C)C)NC1=O [10c] (cyclo(L[dL]L[X4]Y))
% solubility: 69%
//
Compound: CC(C)C[C@@H]1NC(=O)[C@@H](CC(C)C)NC(=O)[C@H]2CCCN2C(=O)[C@H](CC(C)C)NC(=O)[C@@H](CC(C)C)NC(=O)[C@H](CC(C)C)NC(=O)[C@@H]2CCCN2C(=S)[C@@H](C)NC1=O [12f] (cyclo(L[dL]L[dP][dL]L[X18]))
% solubility: 30%
//
Compound: CC(C)C[C@@H]1NC(=O)[C@@H](CC(C)C)NC(=O)[C@H]2CCCN2C(=O)[C@H](CC(C)C)NC(=S)[C@@H](CC(C)C)NC(=O)[C@H](CC(C)C)NC(=O)[C@@H]2CCCN2C(=O)[C@@H](C)NC1=O [12a] (cyclo(L[dA]PL[X2][dP][dL]))
% solubility: 69%
//
Compound: CC(C)C[C@@H]1NC(=O)[C@H](Cc2ccc(O)cc2)NC(=O)[C@H]2CCCN2C(=O)[C@H](CC(C)C)NC(=O)[C@H](CC(C)C)NC(=S)[C@@H](CC(C)C)NC1=O [10a] (cyclo(L[dP]YL[X2]))
% solubility: 58%
//
Compound: CC(C)C[C@@H]1NC(=O)[C@@H](CC(C)C)NC(=O)[C@H]2CCCN2C(=O)[C@H](CC(C)C)NC(=O)[C@@H](CC(C)C)NC(=O)[C@H](CC(C)C)NC(=O)[C@@H]2CCCN2C(=O)[C@@H](C)NC1=O [compound 12] (cyclo(L[dA]PL[dL]L[dP][dL]))
% solubility: 94%

Would you mind telling me what % solubility value was observed for CC(C)C[C@@H]1NC(=O)[C@H](Cc2ccc(O)cc2)NC(=S)[C@H]2CCCN2C(=O)[C@H](CC(C)C)NC(=O)[C@H](CC(C)C)NC(=O)[C@@H](CC(C)C)NC1=O [10d] (cyclo(LL[X6]L[dL])) ?
22%

Would you mind telling me what % solubility value was observed for CC[C@H](C)[C@@H]1NC(=O)[C@@H]2CCCN2C(=O)[C@H]([C@@H](C)CC)NC(=O)[C@@H]2CCCN2C(=S)[C@H](Cc2ccccc2)NC(=O)[C@H](C)NC(=O)[C@H](C)NC1=O [11d] (cyclo(AA[X9]IPI)) ?
85%

Would you mind telling me what % solubility value was observed for CC(C)C[C@@H]1NC(=O)[C@@H](CC(C)C)NC(=O)[C@H]2CCCN2C(=O)[C@H](CC(C)C)NC(=O)[C@@H](CC(C)C)NC(=S)[C@H](CC(C)C)NC(=O)[C@@H]2CCCN2C(=O)[C@@H](C)NC1=O [12h] (cyclo([X3]L[dP][dL]L[dA]P)) ?
40%

Would you mind telling me what % solubility value was observed for CC(C)C[C@@H]1NC(=O)[C@@H](CC(C)C)NC(=O)[C@H]2CCCN2C(=O)[C@H](CC(C)C)NC(=O)[C@@H](CC(C)C)NC(=O)[C@H](CC(C)C)NC(=S)[C@@H]2CCCN2C(=O)[C@@H](C)NC1=O [12g] (cyclo(L[dA][X19][dL]L[dP][dL])) ?
46%

Would you mind telling me what % solubility value was observed for CC(C)C[C@@H]1NC(=O)[C@@H](CC(C)C)NC(=O)[C@H]2CCCN2C(=S)[C@H](CC(C)C)NC(=O)[C@@H](CC(C)C)NC(=O)[C@H](CC(C)C)NC(=O)[C@@H]2CCCN2C(=O)[C@@H](C)NC1=O [12b] (cyclo(L[dL][X4][dL]L[dA]P)) ?
49%
